Subject Of Test: Recombinant unphosphorylated c-Met comprising residues 1038-1346 (Homo sapiens, UniProt P08581)
Construct: The DNA fragment encoding the kinase domain (1038-1346) was inserted into Novagen vector pet28a; six-histidine tag (N)
Sequence (P08581 1038-1346): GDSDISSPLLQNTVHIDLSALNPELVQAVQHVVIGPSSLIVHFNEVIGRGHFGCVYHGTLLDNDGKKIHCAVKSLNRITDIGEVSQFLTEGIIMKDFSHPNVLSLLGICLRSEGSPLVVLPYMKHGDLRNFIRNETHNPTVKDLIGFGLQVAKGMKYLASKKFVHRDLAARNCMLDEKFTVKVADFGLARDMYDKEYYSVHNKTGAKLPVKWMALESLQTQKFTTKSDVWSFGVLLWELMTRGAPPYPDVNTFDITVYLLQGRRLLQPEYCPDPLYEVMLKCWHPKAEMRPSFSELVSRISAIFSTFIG
Assay Name: c-Met p33 kinase assay (33P-ATP, IGF-1 Rtide substrate)
Assay Setup: 15 minutes preincubation, 100 μM ATP, 30 minutes reaction
pIC50: −log10 of the molar value.
Result Type: pIC50

// known answers, use as guide
molecule="O=C1NC(=O)[C@@H](c2cc3c4c(ccn4CCC3)c2)[C@H]1c1c[nH]c2ccccc12 (racemic) [Example 16]" result="≤ 5.00"
molecule="O=C1NC(=O)[C@@H](c2cn3c4c(cccc24)CC3)[C@@H]1c1c[nH]c2ccccc12 (racemic) [Example 33]" result="≤ 5.00"

// query pIC50 value for entry O=C1NC(=O)[C@H](c2c[nH]c3ccccc23)[C@@H]1C(=O)c1cn2c3c(cccc13)CCC2 (racemic) [Example 9] ≤ 5.00
